Entries and their solubility thermodynamic at 24 h values follow.
Experiment: Thermodynamic solubility assay (shake flask, HPLC-UV) in PBS
Type: physicochemical
Conditions: PBS buffer, 25 °C, aqueous buffer, thermodynamic from solid; PBS pH 7.4, shaken 24 hr at room temperature (25±2° C.)
measurement.type: solubility thermodynamic at 24 h (µg/mL)

INSERT INTO assay_data (molecule, measurement_type, qualifying_sign, number) VALUES
  ('O[C@H]1CC[C@H](Nc2ncc3nc(Nc4c(F)cc(F)cc4F)n([C@H]4CCOC4)c3n2)CC1', 'solubility thermodynamic at 24 h', '=', 60.6),
  ('O=P([O-])([O-])OCn1/c(=N\c2c(F)cc(F)cc2F)n([C@H]2CCOC2)c2nc(NC3CCC(O)CC3)ncc21.[Na+].[Na+] (some centres unmarked)', 'solubility thermodynamic at 24 h', '=', 45600),
  ('CCOC(=O)n1/c(=N\c2c(F)cc(F)cc2F)n([C@H]2CCOC2)c2nc(N[C@H]3CC[C@H](O)CC3)ncc21', 'solubility thermodynamic at 24 h', '<', 20),
  ('CN(C)C(=O)O[C@H]1CC[C@H](Nc2ncc3nc(Nc4c(F)cc(F)cc4F)n([C@H]4CCOC4)c3n2)CC1', 'solubility thermodynamic at 24 h', '<', 20),
  ('CCOC(=O)OC1CCC(Nc2ncc3nc(Nc4c(F)cc(F)cc4F)n([C@H]4CCOC4)c3n2)CC1 (some centres unmarked)', 'solubility thermodynamic at 24 h', '<', 20),
  ('C[N+](C)(C)CCOC(=O)O[C@H]1CC[C@H](Nc2ncc3nc(Nc4c(F)cc(F)cc4F)n([C@H]4CCOC4)c3n2)CC1', 'solubility thermodynamic at 24 h', '=', 29600),
  ('CC(=O)OCn1/c(=N\c2c(F)cc(F)cc2F)n([C@H]2CCOC2)c2nc(N[C@H]3CC[C@H](O)CC3)ncc21', 'solubility thermodynamic at 24 h', '=', 114),
  ('CC(=O)O[C@H]1CC[C@H](Nc2ncc3nc(Nc4c(F)cc(F)cc4F)n([C@H]4CCOC4)c3n2)CC1', 'solubility thermodynamic at 24 h', '=', 75.2);
